Assay: protease stability score; higher = more stable; yeast display proteolysis, trypsin and chymotrypsin;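 further: log10 excess protease needed over predicted unfolded state with 0 meaning unfolded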
MEASUREMENT_TYPE: protease stability score
Give the value as a plain number.

Query: protease stability score; subject: DEDLVERVQDLLEAERENDEDTVSKMVDPNVKFSYGNRELHGREQWTKHVAEKQKQMRIQIDIDSYSVQGNHATFTAKITVHINGKPMSDTVTFQIVFSNGKVEEVRMRIDPRFQREVES
0.016

Query: protease stability score; subject: DEEDHKKILQKIADVYQRGNPNQQRDLMDENARVVIGNTKFHGREQAMEAAEERRRQVDRIQLTSIDVHGNKFHIRVTLDINGKTVDIHIDVEVHNGKIKDVQVDPRAEKFFKG
0.202

Query: protease stability score; subject: DEDQVLKVIEKALKAIQQGHREEAKKLGKPNVEVQAADQRDKGPDALLKMVEQVQKVGDKFEYKETRKKGGTVTTRVEVTFGGKTVEYEVNVQAEGGKVQKWEVRIDDDFIEQVKKS
0.671

Query: protease stability score; subject: DEEDQRRVAHDAADALRTGDPDRMVQLADPNVTLDIGDKRFTGDEEFHKAMKEISRQVDHMKIDSYTVRNGRASISAVLEVNGKRKRVFFVFVIHNGRIKELHIKTE
1.59

Query: protease stability score; subject: DEDDLERKDEEFQRLMKTGNFEELAQQADKDVRVQIGDKQLHGRRQIKKYQEEMQRKADHFDVKRVDIQGDTVDAVIENRHNGHHQVVRIQVNMHNGTIKEVTIHSS
-0.02

Query: protease stability score; subject: DEEDIAHQWQDKMRTAFKDNDPEQFTQLADEDAKMHVGDTEYHGRDTIMKTLVDEAKRADRITFNVQDFRVNGNNVVVRLEIRMQHNGKEDSKVVRLVFNQSGDDMRLRYAHDG
0.338

Query: protease stability score; subject: DEERVKDLVKKIFKDIRNGDEERVRKKGKPDVKYEYADKTFEGEDAVRFIVEILKKVGAEDKTQNETVHGDKAQANFQYDKGDQTAQTTAQVEYKGDKVDKMRVKISEEVKKVVEQG
-0.116

Query: protease stability score; subject: DTEKLDRFAHEFVKVLREGDEDRMRKLADEDASMNIGDKEYRGREEVAKALREYRERYDHLQVDSIDVQGEHISVKAQVRIDGRRRRARFEVRMHNGRIKEVNFDPDLLKEQHT
0.206

Query: protease stability score; subject: DEKRARKLLEKAFELVQKGNKDTMRKIGKPNVKYKYVDQEYEGPEAMKFVIDVVKKIGAEVKKQEVEVKGDTAKATFQYRQGDKTVETRVEVKYEGDKLKEVRVEATDEVKKLVHQG
0.009

Query: protease stability score; subject: DEEKNDDTARKFLEVFQEGNEDDIRRLADEDVTVEIGDSTYHGREQALTAVREWSKTVDHYSIESIHADNGRAHLHAKVVVNGKTVNLDLVVDVRNGKVKKVMIDPDRLRELKK
0.921

Query: protease stability score; subject: DHEVHKLFDDFLHAEETGNEEQLTELVDENAQIQVGDKEVHGRDHINKMHADLRRTMDLKLKDYKVNNNGNNVDVDMKYINEDNGKPSKVRMRAIYTFQNGRIKNVHQNRDQ
-0.366

Source of measurements: the NTF2 design screens of Basanta et al. (2020)
